target: Adrenergic receptor alpha-2 (Rattus norvegicus, UniProt P22086+P19328+P22909); assay: Inhibition of [3H]clonidine binding to the rat alpha-2-adrenoceptor; type: protein assay; set-up: unit not given here
OBSERVABLE: Log Ki

Examples with answers:
MOLECULE	Log Ki
O=S(=O)(c1ccccc1)c1ccc2c(c1)CNCC2	4.67
C[C@H](N)c1ccc(Cl)c(Cl)c1	4.44
OC[C@@H]1Cc2ccccc2CN1	4.77
CN1CCCCc2ccccc2C1	5.39
c1ccc2c(c1)CCNC2 [1,2,3,4-TETRAHYDROISOQUINOLINE]	6.45

[Q] Request: Log Ki, test system Adrenergic receptor alpha-2 (Rattus norvegicus, UniProt P22086+P19328+P22909), entry Clc1ccc2c(c1Cl)CNCC2
[A] 7.66

[Q] // repeat for NCc1ccc2c(c1)CNCC2 and report
[A] 4.92

[Q] Could you do the same for COC(=O)Nc1ccc2c(c1)CNCC2 , please?
[A] 5.04

[Q] Next molecule: O=[N+]([O-])c1cc2c(c([N+](=O)[O-])c1)CCCNC2
[A] 4.6

====

Target: Phenylethanolamine N-methyltransferase (Bos taurus, UniProt P10938)
Sequence (P10938 whole entry): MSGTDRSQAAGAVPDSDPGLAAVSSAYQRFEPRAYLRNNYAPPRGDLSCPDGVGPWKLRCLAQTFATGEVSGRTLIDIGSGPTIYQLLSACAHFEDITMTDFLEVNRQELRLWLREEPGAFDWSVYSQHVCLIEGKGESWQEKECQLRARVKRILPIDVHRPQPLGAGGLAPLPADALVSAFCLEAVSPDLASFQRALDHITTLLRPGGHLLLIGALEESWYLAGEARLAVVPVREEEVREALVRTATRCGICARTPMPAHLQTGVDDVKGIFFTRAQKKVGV
OBSERVABLE: pKi
Kindly note that pKi refers to -log10 of the concentration in mol/L and answer with the value alone.

STRUCTURE	SUBJECT OF TEST	pKi
Oc1cccc2c1CNCC2	Phenylethanolamine N-methyltransferase (Bos taurus, UniProt P10938)	3.22

[Q] Please give the measured pKi for this compound: CSc1ccc2c(c1)CNCC2
[A] 6.21

[Q] Continue with C[C@H]1CCc2ccc(Cl)c(Cl)c2CN1
[A] 5.24

[Q] Param item: C[C@@H]1CCc2ccc(Cl)c(Cl)c2CN1
[A] 6.38

[Q] Also, c1ccc(Cc2ccc3c(c2)CNCC3)cc1 please.
[A] 4.21

====

assay: Relative affinity for alpha-2-adrenoceptor and phenylethanolamine N-methyl-transferase (PNMT); design: reference not given here
OBSERVABLE: Selectivity
# answer = number (no unit)

Previously resolved entries follow.
COMPOUND	OBSERVABLE	REPORTED RESULT
O=[N+]([O-])c1ccc2c(c1)CN[C@@H](C(F)(F)F)C2	Selectivity	240
FC(F)(F)[C@H]1Cc2ccccc2CN1	Selectivity	0.05
FC(F)(F)[C@H]1Cc2ccc(Br)cc2CN1	Selectivity	0.83
N#Cc1ccc2c(c1)CNC(C(F)(F)F)C2 (stereo not drawn)	Selectivity	220
CS(=O)(=O)c1ccc2c(c1)CN[C@@H](C(F)(F)F)C2	Selectivity	190
O=[N+]([O-])c1ccc2c(c1)CN[C@H](C(F)(F)F)C2	Selectivity	25
O=[N+]([O-])c1ccc2c(c1)CNC(C(F)(F)F)C2 (stereo not drawn)	Selectivity	750
NS(=O)(=O)c1ccc2c(c1)CNC(CO)C2 (stereo not drawn)	Selectivity	290
CS(=O)(=O)c1ccc2c(c1)CN[C@H](C(F)(F)F)C2	Selectivity	22
OC[C@H]1Cc2ccc(Cl)c(Cl)c2CN1	Selectivity	0.32

[Q] Quick one: Selectivity for NS(=O)(=O)c1ccc2c(c1)CN[C@@H](C(F)(F)F)C2 ?
[A] 61

[Q] What about this compound? CC1Cc2sc3ccccc3c2CN1 (stereo not drawn)
[A] 1.3

[Q] Record: OC[C@@H]1Cc2ccc(Cl)c(Cl)c2CN1
[A] 2.1

[Q] Similarly, NS(=O)(=O)c1ccc2c(c1)CN[C@H](C(F)(F)F)C2 ?
[A] 26

[Q] Input N#Cc1ccc2c(c1)CN[C@H](C(F)(F)F)C2
[A] 1.4

[Q] Now consider OCC1Cc2ccc(Cl)c(Cl)c2CN1 (stereo not drawn) and answer again.
[A] 0.39

[Q] Please answer likewise for FC(F)(F)[C@@H]1Cc2ccc(Br)cc2CN1
[A] 2.6

[Q] Likewise for N#Cc1ccc2c(c1)CN[C@@H](C(F)(F)F)C2 ?
[A] 15

[Q] Field entry: FC(F)(F)C1Cc2ccccc2CN1 (stereo not drawn)
[A] 26

[Q] Quick one: C[C@@H]1Cc2sc3ccccc3c2CN1
[A] 0.08

[Q] Now try C[C@H]1Cc2sc3ccccc3c2CN1 .
[A] 4100

[Q] # iterate: CS(=O)(=O)c1ccc2c(c1)CNC(C(F)(F)F)C2 (stereo not drawn)
[A] 110

====

Property: Log Ki; scope: individual compounds
Target: Adrenergic receptor alpha-2 (Rattus norvegicus, UniProt P22086+P19328+P22909)
Sequence (P22086 whole entry): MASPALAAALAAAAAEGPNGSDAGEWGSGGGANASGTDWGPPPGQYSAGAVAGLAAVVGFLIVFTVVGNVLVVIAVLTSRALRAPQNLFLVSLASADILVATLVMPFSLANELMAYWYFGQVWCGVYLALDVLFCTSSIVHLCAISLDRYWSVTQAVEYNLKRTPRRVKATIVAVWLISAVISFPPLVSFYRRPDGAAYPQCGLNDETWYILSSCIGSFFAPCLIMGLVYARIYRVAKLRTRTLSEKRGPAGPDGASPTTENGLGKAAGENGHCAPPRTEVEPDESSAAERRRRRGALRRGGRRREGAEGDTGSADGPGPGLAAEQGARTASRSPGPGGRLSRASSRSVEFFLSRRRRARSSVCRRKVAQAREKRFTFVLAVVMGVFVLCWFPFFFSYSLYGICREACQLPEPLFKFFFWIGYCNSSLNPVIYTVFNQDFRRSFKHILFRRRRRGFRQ
Sequence (P19328 whole entry): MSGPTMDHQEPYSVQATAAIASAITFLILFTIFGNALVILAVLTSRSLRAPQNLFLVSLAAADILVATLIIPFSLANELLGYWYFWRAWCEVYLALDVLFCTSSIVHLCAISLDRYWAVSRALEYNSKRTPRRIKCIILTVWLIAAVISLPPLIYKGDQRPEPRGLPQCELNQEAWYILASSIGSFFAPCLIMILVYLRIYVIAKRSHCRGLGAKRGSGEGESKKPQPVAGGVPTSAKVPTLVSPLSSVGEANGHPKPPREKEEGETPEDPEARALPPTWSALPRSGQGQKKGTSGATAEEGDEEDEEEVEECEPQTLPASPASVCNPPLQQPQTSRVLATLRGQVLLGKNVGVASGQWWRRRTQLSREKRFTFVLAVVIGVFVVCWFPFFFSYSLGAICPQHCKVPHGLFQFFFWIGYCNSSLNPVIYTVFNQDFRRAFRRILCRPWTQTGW
Sequence (P22909 whole entry): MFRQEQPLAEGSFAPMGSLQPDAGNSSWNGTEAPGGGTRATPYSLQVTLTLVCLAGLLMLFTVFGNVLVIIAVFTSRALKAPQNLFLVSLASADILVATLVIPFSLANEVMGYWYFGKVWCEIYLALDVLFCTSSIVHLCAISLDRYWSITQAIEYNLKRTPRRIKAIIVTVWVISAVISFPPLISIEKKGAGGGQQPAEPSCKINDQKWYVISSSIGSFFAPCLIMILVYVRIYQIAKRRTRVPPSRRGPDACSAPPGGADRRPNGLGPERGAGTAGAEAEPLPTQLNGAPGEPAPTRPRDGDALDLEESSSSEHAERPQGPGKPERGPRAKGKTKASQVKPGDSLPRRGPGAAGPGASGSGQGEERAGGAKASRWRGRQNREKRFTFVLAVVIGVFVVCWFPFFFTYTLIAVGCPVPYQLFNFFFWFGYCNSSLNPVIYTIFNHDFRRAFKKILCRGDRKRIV
Experiment: Inhibition of [3H]clonidine binding to the rat alpha-2-adrenoceptor
Format: protein assay
Set-up: unit not given here
Reply briefly: the number, and no unit.

STRUCTURE	OBSERVABLE	REPORTED RESULT
CN1CCc2ccccc2C1	Log Ki	6.62
Oc1cccc2c1CNCC2	Log Ki	6.14
c1ccc2c(c1)CCCCNC2	Log Ki	4.81
O=C(c1ccc2c(c1)CNCC2)C(F)(F)F	Log Ki	4.49
C=CCS(=O)(=O)c1ccc2c(c1)CNCC2	Log Ki	4.02

[Q] Please provide the recorded Log Ki for Cc1ccc2c(c1)CNCC2 , tested on Adrenergic receptor alpha-2 (Rattus norvegicus, UniProt P22086+P19328+P22909).
[A] 6.44

[Q] What about C[C@H]1Cc2ccc(Cl)c(Cl)c2CN1 ?
[A] 6.37

[Q] Please do the same for CNS(=O)(=O)c1ccc2c(c1)CNCC2 as well.
[A] 3.88
